Source listed as patent US20230174596A1.

Molecular target: LRP6 E1E2 protein (human) (UniProt O75581)
Sequence (O75581 20-630 limits assumed): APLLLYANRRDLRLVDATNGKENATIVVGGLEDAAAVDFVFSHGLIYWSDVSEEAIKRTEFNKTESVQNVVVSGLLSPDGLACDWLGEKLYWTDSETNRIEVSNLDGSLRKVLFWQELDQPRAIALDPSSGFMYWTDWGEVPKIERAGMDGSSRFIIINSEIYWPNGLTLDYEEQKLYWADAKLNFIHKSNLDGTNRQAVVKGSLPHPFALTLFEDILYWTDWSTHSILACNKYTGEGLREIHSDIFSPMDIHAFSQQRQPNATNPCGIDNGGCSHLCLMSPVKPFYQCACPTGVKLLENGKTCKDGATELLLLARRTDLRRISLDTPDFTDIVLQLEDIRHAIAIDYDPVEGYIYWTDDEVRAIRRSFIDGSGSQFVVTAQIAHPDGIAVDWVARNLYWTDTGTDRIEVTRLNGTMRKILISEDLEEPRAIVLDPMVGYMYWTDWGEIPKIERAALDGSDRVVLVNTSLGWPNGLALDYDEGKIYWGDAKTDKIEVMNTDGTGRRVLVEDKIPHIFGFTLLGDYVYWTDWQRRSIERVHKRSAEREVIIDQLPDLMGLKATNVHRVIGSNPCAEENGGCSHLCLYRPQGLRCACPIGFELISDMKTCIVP
Experiment: spot phage ELISA
Parameter: ELISA
Answers are plain numbers.

Below are worked cases with known answers.
binder="GCVNKIKGCKQDSDCLAGCVCGVEGRCG (designed binder) [LRP6_CKP5]" numeric_readout=3.04
binder="GCGNKIRACKQDSDCLAGCVCRDRVGCG (designed binder) [LRP6_CKP21]" numeric_readout=2.8

For every item below, please supply its ELISA.
1. GCASSNSIRQGWCKQDSDCLAGCVCGPKSNCG (designed binder) [LRP6_CKP10]
2. GCANRVKRTSCKQDSDCLAGCVCGPNGFCG (designed binder) [LRP6_CKP22]

3.29
3.43

For every item below, please supply its ELISA.
1. GCRSVNKICKQDSDCLAGCVCGSSRNCG (designed binder) [LRP6_CKP4]
2. GCRTNRVKGGCKQDSDCLAGCVCGPNGFCG (designed binder) [LRP6_CKP1]
3. GCGSNKIRPRCKQDSDCLAGCVCGPNDFCG (designed binder) [LRP6_CKP14]

2.82
3.23
3.18
